- Tested on: C. auris Ca 41
- assay overview: MIC, CLSI M27 broth microdilution
- Assay type: cell-based, Candida auris
- run parameters: C. auris Ca 41; antifungal drugs
- Description: The fungal strains used in this study were C. albicans ATCC 10231, C. albicans ATCC 64550, C. parapsilosis ATCC 22019, C. tropicalis ATCC 750, C. tropicalis ATCC 200956 (resistant to azoles and AMB), C. glabrata LMDM 34 (resistant to echinocandins), C. metapsilosis MUM 15.12, C. orthopsilosis MUM 17.13, C. lusitaniae MUM 17.08, C. krusei ATCC 6258 (Issatchenkia orientalis ATCC 6258), and C. auris CDC B11903. […]
readout type: MIC Range

Recorded MIC Range for C[C@@H]1[C@H](O)[C@@H](C)/C=C/C=C/C=C/C=C/C=C/C=C/C=C/[C@H](O[C@@H]2O[C@H](C)[C@@H](O)[C@H](N)[C@@H]2O)C[C@@H]2O[C@](O)(C[C@@H](O)C[C@@H](O)[C@H](O)CC[C@@H](O)C[C@@H](O)CC(=O)O[C@H]1C)C[C@H](O)[C@H]2C(=O)O , please?
1 µg/mL

Try this compound too: CCC(C)n1ncn(-c2ccc(N3CCN(c4ccc(OCC5COC(Cn6cncn6)(c6ccc(Cl)cc6Cl)O5)cc4)CC3)cc2)c1=O (stereo not shown)
0.03 to 0.12 µg/mL

Try this compound too: CC[C@H](C)C[C@H](C)CCCCCCCCC(=O)N[C@H]1C[C@@H](O)[C@@H](NCCN)NC(=O)[C@@H]2[C@@H](O)CCN2C(=O)[C@H]([C@H](O)CCN)NC(=O)[C@H]([C@H](O)[C@@H](O)c2ccc(O)cc2)NC(=O)[C@@H]2C[C@@H](O)CN2C(=O)[C@H]([C@@H](C)O)NC1=O
0.5 µg/mL

Same for OC(Cn1cncn1)(Cn1cncn1)c1ccc(F)cc1F
2 µg/mL

----------
Could you please report measured MIC Range for the items listed next?
- System: C. auris Ca 46
- assay overview: MIC, CLSI M27 broth microdilution
- Assay type: cell-based, Candida auris
- run parameters: C. auris Ca 46; antifungal drugs

Quick one: MIC Range for CC[C@H](C)C[C@H](C)CCCCCCCCC(=O)N[C@H]1C[C@@H](O)[C@@H](NCCN)NC(=O)[C@@H]2[C@@H](O)CCN2C(=O)[C@H]([C@H](O)CCN)NC(=O)[C@H]([C@H](O)[C@@H](O)c2ccc(O)cc2)NC(=O)[C@@H]2C[C@@H](O)CN2C(=O)[C@H]([C@@H](C)O)NC1=O [CSF, caspofungin] ?
0.5 µg/mL

Can you handle C[C@@H]1[C@H](O)[C@@H](C)/C=C/C=C/C=C/C=C/C=C/C=C/C=C/[C@H](O[C@@H]2O[C@H](C)[C@@H](O)[C@H](N)[C@@H]2O)C[C@@H]2O[C@](O)(C[C@@H](O)C[C@@H](O)[C@H](O)CC[C@@H](O)C[C@@H](O)CC(=O)O[C@H]1C)C[C@H](O)[C@H]2C(=O)O [AMB, amphotericin B] next?
1 to 2 µg/mL

And CCC(C)n1ncn(-c2ccc(N3CCN(c4ccc(OCC5COC(Cn6cncn6)(c6ccc(Cl)cc6Cl)O5)cc4)CC3)cc2)c1=O (stereo not shown) [ITC, itraconazole] ?
0.06 to 0.12 µg/mL

Check OC(Cn1cncn1)(Cn1cncn1)c1ccc(F)cc1F [FLC, fluconazole] too.
2 to 4 µg/mL
